Origin of values: PubChem BioAssay (NCI)

Test system: UACC-257 melanoma
Assay: NCI tumour cell line growth inhibition, 48 h; in the data active = GI50 below about 0.43 µM; inactive = the rest
A correct response names exactly one class from 1.0 for active, 0.0 for inactive

Would you please look over these solved cases?
Query string: Hi team, can someone confirm the assay call for "CC(C)NCCCn1c(Sc2cc3c(cc2I)OCO3)nc2c(N)ncnc21" ?
Result string: 1.0

Query string: Then O=C1OCC2=C1C(c1ccc(Cl)c(Cl)c1)c1cc3c(cc1N2CCO)OCCO3 (stereo not given) ?
Result string: 1.0

Query string: "O=S(=O)(Nc1cc(Sc2cccc3cccnc23)c(O)c2ccccc12)c1ccc(F)cc1" , same question.
Result string: 0.0

Query string: Also "COc1ccc(-c2[nH]c3ccccc3c2-c2ccc(OC)cc2)cc1" ?
Result string: 0.0

More entries:
Query string: So what was the verdict on "O=C1C(=C([O-])c2ccccc2)C(=O)c2ccccc21.O=C1C(=C([O-])c2ccccc2)C(=O)c2ccccc21.[Fe+2]" in this test?
Result string: 0.0

Query string: Likewise for "CCOc1ccccc1C(=O)N1CCN(c2cc(Cl)cc(Cl)c2)CC1" ?
Result string: 0.0

Query string: Next entry: "O=C(/C=C/c1cc2ccccc2[nH]c1=O)/C=C/c1cc2ccccc2[nH]c1=O"
Result string: 0.0

###

Tested on: SF-539 CNS
Test: NCI tumour cell line growth inhibition, 48 h
Where a SMILES comes first, the peptide text is derived from it. The star is where a group is joined. Boc = CC(C)(C)OC(=O)*
measurementName: TGI

Query string: # value lookup — system SF-539 CNS, readout TGI, item "CNCCCNCCCCNCCCN1C(=O)c2ccc3c4c(ccc(c24)C1=O)C(=O)N(CCCNCc1ccccc1OC)C3=O"
Result string: 6.82 µM

Query string: Now consider "COC1=CC(=O)C2=C(C1=O)[C@H]1CC[C@]3(C)[C@@H](O)CC[C@H]3[C@@H]1CC2" and answer again.
Result string: 30.6 µM

Query string: What do you get for CC(C)(C)OC(=O)NC(Cc1ccc(O)cc1)C(=O)N1CCCC1C(=O)O (stereo not drawn) (Boc-Tyr-Pro-OH; configuration not given here) ?
Result string: > 100 µM

Query string: Next entry: "O=C(/C=C\c1cccc([N+](=O)[O-])c1)/C=C/c1cccc([N+](=O)[O-])c1"
Result string: > 100 µM

Query string: Same for "COc1cc(C(=O)C/C(CCC(=O)Nc2ccccc2[N+](=O)[O-])=N\NC(N)=O)ccc1O"
Result string: > 100 µM

Query string: What do you get for COc1ccc(C2SCC(=O)N2c2ccc(-c3ccc(-n4c(-c5ccccc5)nc5ccccc5c4=O)cc3)cc2)cc1OC (stereo not drawn) ?
Result string: > 100 µM

Query string: // query: "O=[N+]([O-])c1ccc(C=Cc2ccccc2)cc1.[C-]#[O+].[C-]#[O+].[C-]#[O+].[Cr]"
Result string: > 100 µM

Query string: Now try O=C(O)c1ccc(C2COc3ccc(Cl)cc3C2)cc1 (stereo not drawn) .
Result string: > 100 µM

###

Tested on: MALME-3M melanoma
Assay: NCI tumour cell line growth inhibition, 48 h
measurementName: GI50

Query string: Quick check: GI50 on MALME-3M melanoma, item "O=C(Nc1ccc(OCc2nnc(-c3ccc(Cl)cc3)o2)c(F)c1)Nc1ccc(Cl)c(C(F)(F)F)c1" ?
Result string: 2400 nM

Query string: Same question for "COc1cc2nc(N3CCCC3)nc(NCCc3ccccc3)c2cc1OC" please.
Result string: 1900 nM

Query string: Record: O=c1[nH]c(=O)n(C2CC(O)C(COP(=O)(OCc3ccc([N+](=O)[O-])o3)N(CCCCCl)CC(O)CO)O2)cc1F (stereo not given)
Result string: 207 nM

Switching to the query record.
Query string: Tell me reported GI50 for "CN=c1ccc2nc3ccc(N)cc3sc-2c1" , tested with MALME-3M melanoma.
Result string: 1090 nM

###

The following compounds are listed with their measured GI50 values.
System: SF-295 CNS
Experiment: NCI tumour cell line growth inhibition, 48 h

Example entries begin here.
Query string: Would you mind telling me what GI50 value was observed for "C=CC(=O)Nc1cccc(Oc2nc(Nc3ccc(N4CCN(C)CC4)cc3)nc3ccsc23)c1" ?
Result string: 7.68 µM

Query string: What about "COc1ccc(-c2cc(-c3ccc(C)cc3)nc3nc(=S)[nH]c(N)c23)cc1" ?
Result string: 15.9 µM

Query string: For "COc1cc2c3c(n(C)c(=O)c2cc1OC)-c1cc2c(cc1/C3=C\CCCCN1C(=O)c3ccccc3C1=O)OCO2" then?
Result string: 11 µM

Query string: Also need "O=S(=O)(Nc1cc(Sc2cccc3cccnc23)c(O)c2ccccc12)c1ccc(F)cc1" , thanks.
Result string: 3.34 µM

More entries:
Query string: Using the record for O=C1CCC(N2Cc3cc(CNC(=O)C(F)(F)c4ccc(Cl)cc4)ccc3C2=O)C(=O)N1 (stereo not given) , report its GI50.
Result string: > 100 µM

###

In this section, each of the molecules is paired with its reported TGI.
Tested on: PC-3 prostate
Test: NCI tumour cell line growth inhibition, 48 h

Query string: GET /values?readout=TGI&item= "CN[C@@H](C)C(=O)N[C@H](C(=O)N1CCC[C@H]1C(=O)Nc1sc(-c2ncco2)nc1-c1ccccc1)C1CCCCC1"
Result string: > 100 µM

Others:
Query string: Which TGI is reported for this molecule? O=C(O)C12C3CCC(CC3)C1(C(=O)O)C1CCC2C1 (stereo unspecified)
Result string: > 100 µM

Query string: Then COc1cc(N2C(=O)[C@H](O)C2c2ccc(SC)cc2)cc(OC)c1OC (stereo partly specified) ?
Result string: > 100 µM

Query string: Next molecule: "O=[N+]([O-])c1nccn1CCCNc1ccnc2cc(Cl)ccc12"
Result string: > 100 µM

###

Tested on: ACHN renal
Experiment: NCI tumour cell line growth inhibition, 48 h
We begin with a simple list: items and their reported TGI.

Worked cases, answers included:
Query string: I have this compound here, "C=CC[C@@H](N)C(=O)N(C)[C@@H](C)[C@@H](O)c1ccccc1" , and I need its recorded TGI.
Result string: > 100 µM

Query string: Also "CS(=O)(=O)c1ccc(-c2cc(-c3ccc(S(C)(=O)=O)cc3)[n+](-c3cc(-c4ccc(S(C)(=O)=O)cc4)c([O-])c(-c4ccc(S(C)(=O)=O)cc4)c3)c(-c3ccc(S(C)(=O)=O)cc3)c2)cc1" , if possible.
Result string: > 100 µM

Query string: And the next one, "O=C(CSc1nnc(Cc2ccccc2)o1)Nc1ccccc1" ?
Result string: > 100 µM

Query string: Would you kindly repeat that for CC#CCC1CCC(OCC)=CC1=O (stereo not given) ?
Result string: > 100 µM

Query string: Then "COc1ccc(C(=O)/C=C/c2ccc(O)c(O)c2)c(OC)c1" ?
Result string: > 70.3 µM

Query string: And for "c1cnn2ncc(-c3ccnc(NCCCN4CCOCC4)n3)c2c1" ?
Result string: > 25 µM

Query string: Also O=C1NC(=O)C2C(=O)NC(=O)C1C2c1c(Cl)cccc1Cl (stereo not given) , if possible.
Result string: > 100 µM

Query string: Please give the result for "CCCCn1c(N)c(-c2nc3ccccc3o2)sc1=S" too.
Result string: 23.3 µM

Query string: Thanks! And CC1=NNC(=O)C1C1CC(c2c[nH]c3ccccc23)=NNC1=O (stereo not given) ?
Result string: > 100 µM

// next entry
Query string: Tell me the measured TGI of "C#C[C@]1(O)CCCC2=CC(=O)CC[C@@]21C" , please.
Result string: > 100 µM

###

Below: a set of entries, each annotated with reported GI50.
Tested on: SF-268 CNS
Experiment: NCI tumour cell line growth inhibition, 48 h

Query string: Could you tell me which GI50 is on file for "O=C(/C=C\c1cccc([N+](=O)[O-])c1)/C=C/c1cccc([N+](=O)[O-])c1" ?
Result string: 3.08 µM

Next:
Query string: Could you share which GI50 value was measured for CC(=O)OC12C=C(C)C(C(C)C1)C1C(=O)N(CCN3CCOCC3)C(=O)C12 (stereo not given) ?
Result string: > 100 µM

Query string: Next compound: CC(C)C[C@H](NC(=O)CNC(=O)c1cc(Cl)ccc1Cl)B1OC(=O)CC(CC(=O)O)(C(=O)O)O1 (stereo not given in full)
Result string: 0.0723 µM

Query string: And for "O=C1c2c(c3c4ccccc4[nH]c3c3ccc4ccccc4c23)C(=O)N1CCN1CCNCC1" ?
Result string: 1.86 µM

Query string: Please give the result for "CCOc1ccccc1C(=O)N1CCN(c2cc(Cl)cc(Cl)c2)CC1" too.
Result string: 0.112 µM

###

Tested on: DMS 273 small cell lung
Assay: NCI tumour cell line growth inhibition, 48 h
measurementName: TGI

Before answering, review these 2 worked examples.
Query string: Quick check: TGI of NC(=O)c1csc(C2OC(CO)C(O)C2O)n1 (stereo not drawn) ?
Result string: 9.96 mM

Query string: How about this compound: O=C(O)c1ccc(C2COc3ccc(Cl)cc3C2)cc1 (stereo not drawn)
Result string: > 0.1 mM

New cases:
Query string: Need TGI of CC#CCC1CCC(OCC)=CC1=O (stereo not drawn) , thanks.
Result string: > 0.1 mM
